# assay-explanation: eIF4E expression suppression, luciferase knock-in reporter – cell-based, HT1080, primary screen (AID 1224817);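 also: luciferase reports endogenous eIF4E expression since it is co-expressed from the native EIF4E locus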
# protocol-conditions: HT1080 EIF4E-luc2 knock-in reporter, 16 h, at 2.5 µM, stronger effect = lower value
About 25 (1%) of roughly 2,000 compounds were called active. Many of the other results were omitted from the sample, so actives are more common in it than they were.
Quick reference for log2 luciferase activity ratio among some compounds
I'd appreciate a reply containing only the number, no unit.

// below: answered compounds
- compound: "O=C(Nc1ccc([As](=O)(O)O)cc1)Nc1cccc(Cl)c1Cl"
  log2 luciferase activity ratio: 0.175
- compound: "CC[C@](O)(C(=O)O)c1cc2n(c(=O)c1CO)Cc1cc3ccccc3nc1-2"
  log2 luciferase activity ratio: -0.308

**Query** Which value of log2 luciferase activity ratio has been reported for c1ccc(CCN2CCCCCC2)nc1 in the records?
**Result** 0.334

**Query** C[C@]12CC[C@H]3[C@@H](CCC4=CC(=O)CC[C@@H]43)[C@@H]1CC[C@@H]2OC1(O)C(=O)c2ccccc2C1=O ?
**Result** -0.175

**Query** CC1=CC23C(COC(=O)C24CO4)C(C(=O)O)=CC3C1C (configuration not stated) ?
**Result** -0.125

**Query** CC(Cc1ccc(Cl)cc1Cl)NO (configuration not stated) ?
**Result** 0.563

**Query** COc1cc(CCN)c(OC)c(OC)c1 ?
**Result** -0.289

Every entry's value here was drawn from PubChem BioAssay AID1224817.
